system: EKO-35 strains with integrated RND tripartite efflux pumps (AcrB, AcrEF, AcrD, and MdtEF) with pGDP2:emrE or empty pGDP-2; experiment: Efflux pump interplay MIC profiling (pGDP2:emrE); format: cell-based, Escherichia coli; conditions: strain mdtEF; Pore −
Parameter: Fold Change from EKO-35. Scope: all listed entries.

C[n+]1c2cc(N)ccc2cc2ccc(N)cc21.[Cl-]	1
CO[C@@H]1[C@@H](OC(N)=O)[C@@H](O)[C@H](Oc2ccc3c(O)c(NC(=O)c4ccc(O)c(CC=C(C)C)c4)c(=O)oc3c2C)OC1(C)C	16
CN(C)c1ccc(O)c2c1C[C@H]1C[C@H]3[C@H](N(C)C)C(O)=C(C(N)=O)C(=O)[C@@]3(O)C(O)=C1C2=O	2

Okay, next one:
Task: For CC[n+]1c(-c2ccccc2)c2cc(N)ccc2c2ccc(N)cc21 [ethidium bromide] , what is its reported Fold Change from EKO-35?
Output: 8

---

Parameter: Fold Change from EKO-35. Scope: all listed entries.
tested on: EKO-35 strains with integrated RND tripartite efflux pumps (AcrB, AcrEF, AcrD, and MdtEF) with pGDP2:emrE or empty pGDP-2; test: Efflux pump interplay MIC profiling (pGDP2:emrE); assay type: cell-based, Escherichia coli; settings: strain acrB pEmrE; Pore −
A bare number is all that is needed in reply.

The following compounds have reported results that may help.
C[n+]1c2cc(N)ccc2cc2ccc(N)cc21.[Cl-] [acriflavine]	256
CO[C@@H]1[C@@H](OC(N)=O)[C@@H](O)[C@H](Oc2ccc3c(O)c(NC(=O)c4ccc(O)c(CC=C(C)C)c4)c(=O)oc3c2C)OC1(C)C [novobiocin]	512
CC[n+]1c(-c2ccccc2)c2cc(N)ccc2c2ccc(N)cc21 [ethidium bromide]	256

Okay, next one:
Task: For CN(C)c1ccc(O)c2c1C[C@H]1C[C@H]3[C@H](N(C)C)C(O)=C(C(N)=O)C(=O)[C@@]3(O)C(O)=C1C2=O [minocycline] , what is its reported Fold Change from EKO-35?
Output: 4

---

test system: EKO-35 araC::mdtEF Pore; assay: MIC susceptibility profiling, porinated efflux platform; format: cell-based, Escherichia coli; settings: EKO-35 araC::mdtEF Pore compared to EKO-35-Pore
Mark T for reported Fold changes of MICs of 8 fold or greater; mark F for anything smaller.

Solved entries:
CC1(C)S[C@@H]2[C@H](NC(=O)[C@H](N)c3ccccc3)C(=O)N2[C@H]1C(=O)O	F
CCCCCCCCCCCCOS(=O)(=O)[O-].[Na+] [SDS, sodium dodecyl sulphate]	T
COc1cccc2c1C(=O)c1c(O)c3c(c(O)c1C2=O)C[C@@](O)(C(C)=O)C[C@@H]3O[C@H]1C[C@H](N)[C@H](O)[C@H](C)O1	T
C[C@@H]1O[C@@H]1P(=O)(O)O	F
CO[C@@H]1[C@@H](OC(N)=O)[C@@H](O)[C@H](Oc2ccc3c(O)c(NC(=O)c4ccc(O)c(CC=C(C)C)c4)c(=O)oc3c2C)OC1(C)C	T

Now consider the entry below.
Task: Can `CN(C)c1ccc(O)c2c1C[C@H]1C[C@H]3[C@H](N(C)C)C(O)=C(C(N)=O)C(=O)[C@@]3(O)C(O)=C1C2=O` be said to have Fold changes of MICs at or above 8 fold?
Output: F

---

system: EKO-35 araC::mdtEF Pore; experiment: MIC susceptibility profiling, porinated efflux platform; type: cell-based, Escherichia coli; settings: EKO-35 araC::mdtEF Pore compared to EKO-35-Pore
Parameter: Fold changes of MICs. Scope: all listed entries.
// return numeric value only (unit: fold, not printed)

The following compounds have reported results that may help.
CN[C@@H]1[C@H](O)[C@H](NC)[C@H]2O[C@@]3(O)C(=O)C[C@@H](C)O[C@H]3O[C@@H]2[C@H]1O [Spectinomycin]	1
NC[C@H]1O[C@H](O[C@H]2[C@H](O)[C@@H](O[C@H]3O[C@H](CO)[C@@H](O)[C@H](N)[C@H]3O)[C@H](N)C[C@@H]2N)[C@H](O)[C@@H](O)[C@@H]1O [kanamycin]	1
COc1ccc(C[C@H](N)C(=O)N[C@H]2[C@@H](O)[C@H](n3cnc4c(N(C)C)ncnc43)O[C@@H]2CO)cc1 [puromycin]	2
CCn1cc(C(=O)O)c(=O)c2cc(F)c(N3CCNCC3)cc21 [norfloxacin]	2
N#Cc1ccc(-c2c(NC(=O)C(Cl)Cl)oc(-c3cccs3)c2C#N)cc1 [compound 2]	1
N#CC(C#N)=NNc1ccc(-n2ccc(C(F)(F)F)n2)cc1 [compound 8]	1

Okay, next one:
Task: For COC(=O)c1sc(N2CCCC2)c(C#N)c1-c1cccs1 [compound 10] , what is its reported Fold changes of MICs?
Output: 16
